This section presents substances with their documented Retention Time values.
Experiment: RP-UPLC-MS/MS peptide profile, retention time
Type: physicochemical
Details: Poroshell 120 EC-C18, water/acetonitrile with 0.1% formic acid, B 1–13% in 6 min, 35% at 25 min, 100% at 35 min, 23 °C, 500 µL/min, early elution read as high polarity, late as higher hydrophobicity
Excerpt: RP-UPLC coupled with MS/MS Q-TOF system was used to separate, identify, and characterize the peptide population, present in the porcine cruor hydrolysates. RP-UPLC tests were operated using a 1290 Infinity II UPLC (Agilent Technologies, Santa Clara, CA, USA), following the method proposed by. This chromatography instrument was composed of a binary pump (G7120A), a multisampler (G7167B), an in-line degasser and a variable wavelength detector (VWD G7114B) adjusted to 214 nm. […]

SUBSTANCE: LVVYPWTQRF [porcine hemoglobin fragment β 33–42]
Retention Time (min): 16.65
//
SUBSTANCE: PTTKTYFPHF [porcine hemoglobin fragment α 37–46]
Retention Time (min): 12.01
//
SUBSTANCE: ERMFLGF [porcine hemoglobin fragment α 30–36]
Retention Time (min): 16.27
//
SUBSTANCE: DQLHVDPENFRLLGNVIVVVLARRLGHDFNPNVQ [porcine hemoglobin fragment β 95–128]
Retention Time (min): 24.79
//
SUBSTANCE: LGFPTTKTYFPHF [porcine hemoglobin fragment α 34–46]
Retention Time (min): 16.46
//
SUBSTANCE: CLLVTLAAHHPDDFNPS [porcine hemoglobin fragment α 104–120]
Retention Time (min): 12.90
//
SUBSTANCE: STVLTSKYR [porcine hemoglobin fragment α 133–141]
Retention Time (min): 6.67
//
SUBSTANCE: KLLSHCLL [porcine hemoglobin fragment α 99–106]
Retention Time (min): 10.93
//
SUBSTANCE: HVDPENFRLLGNVIVVVLARRLGHDFNPNVQA [porcine hemoglobin fragment β 98–129, synthesized]
Retention Time (min): 23.33
//
SUBSTANCE: HVDPENFRLLGNVIV [porcine hemoglobin fragment β 98–112]
Retention Time (min): 17.16
//
SUBSTANCE: SFGDLSNADAVMGNPKVK [porcine hemoglobin fragment β 45–62]
Retention Time (min): 12.90
//
SUBSTANCE: AAFQKVVAGVANA [porcine hemoglobin fragment β 129–141]
Retention Time (min): 10.86
//
SUBSTANCE: RMFLGFPTTKTYFPHF [porcine hemoglobin fragment α 31–46]
Retention Time (min): 17.99
//
SUBSTANCE: FLGFPTTKTYFPHF [porcine hemoglobin fragment α 33–46]
Retention Time (min): 19.13
//
SUBSTANCE: SDLHAHKLRVDPVNF [porcine hemoglobin fragment α 84–98]
Retention Time (min): 9.34
//
SUBSTANCE: LLVVYPWTQRF [porcine hemoglobin fragment β 32–42]
Retention Time (min): 19.00
//
SUBSTANCE: DPENFRLLGNVIVVVLA [porcine hemoglobin fragment β 100–116]
Retention Time (min): 11.10
//
SUBSTANCE: TVLTSKYR [porcine hemoglobin fragment α 134–141]
Retention Time (min): 6.54
//
SUBSTANCE: VLTSKYR [porcine hemoglobin fragment α 135–141]
Retention Time (min): 5.97
//
SUBSTANCE: VTLAAHHPDDFNPSVHASLDKF [porcine hemoglobin fragment α 107–128]
Retention Time (min): 11.37
//
SUBSTANCE: GLWGKVNVDEVGGEALGRL [porcine hemoglobin fragment β 14–32]
Retention Time (min): 16.84
